# Experimental system: recombinant human or murine heat shock protein 70 (hsp70) (human or murine)
# Sequence (A8K5I0 entry or part of it): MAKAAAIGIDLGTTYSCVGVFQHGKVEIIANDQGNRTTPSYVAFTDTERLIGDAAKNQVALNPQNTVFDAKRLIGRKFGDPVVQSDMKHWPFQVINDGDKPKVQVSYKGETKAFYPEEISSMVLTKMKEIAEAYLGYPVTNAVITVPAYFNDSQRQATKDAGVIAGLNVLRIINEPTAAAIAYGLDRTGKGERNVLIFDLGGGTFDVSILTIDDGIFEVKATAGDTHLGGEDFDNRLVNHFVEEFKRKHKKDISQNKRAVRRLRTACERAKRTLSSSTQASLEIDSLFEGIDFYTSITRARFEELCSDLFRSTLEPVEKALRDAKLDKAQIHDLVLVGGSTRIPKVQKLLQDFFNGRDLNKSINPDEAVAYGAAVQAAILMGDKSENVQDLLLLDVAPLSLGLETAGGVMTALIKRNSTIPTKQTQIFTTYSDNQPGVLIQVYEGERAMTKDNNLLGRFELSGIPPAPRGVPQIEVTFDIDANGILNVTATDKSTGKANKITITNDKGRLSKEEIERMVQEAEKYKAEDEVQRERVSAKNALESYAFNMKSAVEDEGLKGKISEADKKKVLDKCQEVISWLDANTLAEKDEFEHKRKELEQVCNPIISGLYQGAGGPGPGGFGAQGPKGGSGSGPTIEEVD
# Experiment: binding affinity for HSP70, binding inhibition assay
Criterion: Kd strictly less than 2 µM. Met: Y. Not met: N.

Example cases with answers are listed next.
- NLLRLTGWFRSIINFEKL: Y
- NLLRLTGWFFRKSIINFEKL: N
- NLLRLTGWGSGSIINFEKL: Y
- NLLRLTGWRKSIINFEKL: Y

query: Given NLLRLTGWQLKSIINFEKL , is recorded Kd strictly lower than 2 µM?
result: Y
